Reported Normal melting temperature values are given for each entry in this list.
- Experimental conditions: Crystal; DTA
Entry rule: numbers only, all in °C.

Consider the following illustrative entries.
| Molecule | Normal melting temperature / °C |
| --- | --- |
| O[C@@H]1CCCC[C@H]1O [(1R,2R)-1,2-cyclohexanediol] | 108 |
| O[C@H]1CCCC[C@@H]1O | 104 |
| O=C(O)[C@H](O)[C@@H](O)C(=O)O [(2R,3R)-2,3-dihydroxybutanedioic acid] | 171 |

Moving on to another molecule below.
Lookup: Could you share which Normal melting temperature value was measured for O[C@@H]1CCCC[C@H]1O (relative stereo) [trans-1,2-cyclohexanediol] ?
Found: 99
